molecular target: (NVDP)3(NANP)2 (Plasmodium falciparum); assay: SPR, antibody on chip
measured quantity: log10 Kd (log10 of the value in µM)

{"binder": "AB-007028 (antibody, V domains shown) VH: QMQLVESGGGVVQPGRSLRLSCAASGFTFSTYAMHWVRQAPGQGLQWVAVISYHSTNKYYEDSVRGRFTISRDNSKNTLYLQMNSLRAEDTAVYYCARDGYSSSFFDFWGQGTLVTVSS VL: DIQMTQSPSTLSASVGDRVTITCRASQSISRWLAWYQQQPGKAPKLLMSGASVLESGVPSRFSGSGSGTEFTLTISSLQPDDFATYYCQHYNSYFVTFGQGTKVEIK", "log10 Kd": 0.37}
{"binder": "AB-007065 (antibody, V domains shown) VH: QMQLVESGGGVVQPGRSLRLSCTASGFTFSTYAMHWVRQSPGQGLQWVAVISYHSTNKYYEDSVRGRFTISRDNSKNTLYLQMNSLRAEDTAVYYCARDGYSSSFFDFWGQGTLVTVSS VL: DIQMTQSPSTLSASVGDRVAITCRASQSISRWLAWYQQQPGKAPKLLMSKASVLESGVPSRFSGSGSGTEFTLTISSLQPDDFATYYCQHYNSYFVTFGQGTKVEIK", "log10 Kd": 1.10}
{"binder": "AB-007068 (antibody, V domains shown) VH: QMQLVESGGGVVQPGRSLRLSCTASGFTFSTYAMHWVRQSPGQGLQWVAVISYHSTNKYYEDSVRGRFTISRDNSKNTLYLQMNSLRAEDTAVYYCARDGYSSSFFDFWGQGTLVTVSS VL: DIQMTQSPSTLSASVGDRVAITCRASQSISRWLAWYQQQPGKAPKLLMSLASVLESGVPSRFSGSGSGTEFTLTISSLQPDDFATYYCQHYNSYFVTFGQGTKVEIK", "log10 Kd": 1.51}
{"binder": "AB-007037 (antibody, V domains shown) VH: QMQLVESGGGVVQPGRSLRLSCTASGFTFSTYAMHWVRQSPGQGLQWVAVISYHSTNKYYEDSVKGRFTISRDNSKNTLYLQMNSLRAEDTAVYYCARDGYSSSFFDFWGQGTLVTVSS VL: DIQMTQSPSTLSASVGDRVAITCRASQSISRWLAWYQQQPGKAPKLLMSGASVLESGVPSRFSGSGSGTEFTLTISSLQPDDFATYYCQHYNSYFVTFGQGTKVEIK", "log10 Kd": 0.43}
{"binder": "AB-007041 (antibody, V domains shown) VH: QMQLVESGGGVVQPGRSLRLSCTASGFTFSDYAMHWVRQSPGQGLQWVAVISYHSTNKYYEDSVRGRFTISRDNSKNTLYLQMNSLRAEDTAVYYCARDGYSSSFFDFWGQGTLVTVSS VL: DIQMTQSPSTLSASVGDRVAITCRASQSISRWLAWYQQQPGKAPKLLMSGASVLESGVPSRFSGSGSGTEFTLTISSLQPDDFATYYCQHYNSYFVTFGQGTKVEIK", "log10 Kd": 0.59}

Cited source: patent US20220195023A1
